- Tested on: Spodoptera littoralis
- test: Antifeedant activity against Spodoptera littoralis fifth-instar larvae reared on compound exposed lettuce disks assessed as feeding ratio when 50% of control leaf disk area consumed at 10 ug/cm2 measured for 4 to 5 hr by leaf disk choice method
- Assay type: functional
Hi! Could you tag entries with FR50 below 0.2 as satisfied, and those at or above as not satisfied? Much appreciated.

Ask: Hello, I'm reviewing records and need to know if FR50 of CC(=O)OC[C@]12[C@@H](OC(=O)c3ccccc3)[C@H](OC(C)=O)[C@@H]3[C@@H](OC(C)=O)[C@]1(OC3(C)C)[C@H](C)C[C@H](OC(C)=O)[C@@H]2OC(C)=O is below 0.2. Could you check?
Reply: satisfied

Ask: Check CC(=O)O[C@H]1[C@@H]2C[C@@]3(OC2(C)C)[C@](C)([C@H]1OC(=O)c1ccccc1)[C@@H](OC(=O)c1ccccc1)[C@H](OC(C)=O)[C@H](OC(C)=O)[C@]3(C)O [2BETA,3BETA,4BETA-TRIHYDROXYCELAPANOL] too.
Reply: not satisfied

Ask: Check CC(=O)OC[C@]12[C@H](OC(=O)c3ccccc3)[C@H](OC(C)=O)[C@@H]3[C@@H](OC(C)=O)[C@]1(OC3(C)C)[C@@](C)(O)C[C@H](OC(C)=O)[C@@H]2OC(=O)c1ccccc1 too.
Reply: not satisfied

Ask: Check CC(=O)O[C@H]1[C@@H]2[C@@H](OC(C)=O)[C@@]3(OC2(C)C)[C@@](C)([C@@H](OC(=O)c2ccccc2)CC[C@]3(C)O)[C@@H]1OC(C)=O too.
Reply: satisfied

Ask: Check CC(=O)OC[C@]12[C@@H](OC(=O)c3ccccc3)C[C@@H]3[C@@H](OC(C)=O)[C@]1(OC3(C)C)[C@H](C)C[C@H](OC(C)=O)[C@@H]2OC(C)=O too.
Reply: satisfied

====

- Tested on: Spodoptera littoralis
- test: Antifeedant activity against Spodoptera littoralis fifth-instar larvae reared on compound exposed lettuce disks assessed as feeding ratio when 50% of control leaf disk area consumed at 10 ug/cm2 measured for 4 to 5 hr by leaf disk choice method
- Type: functional
Each entry below carries its recorded FR50.
I'd appreciate a reply containing only the number, no unit.

Ask: Could you share what FR50 was measured for CC(=O)O[C@H]1C[C@@H]2[C@@H](OC(=O)c3cccnc3)[C@@]3(OC2(C)C)[C@@]1(C)[C@@H](OC(=O)c1ccccc1)CC[C@]3(C)O , tested on Spodoptera littoralis?
Reply: 0.68

Ask: Check CC(=O)OC[C@@]12[C@@H](OC(=O)c3ccccc3)CC[C@](C)(O)[C@]13OC(C)(C)[C@H]([C@@H](OC(C)=O)[C@H]2OC(=O)c1ccccc1)[C@H]3OC(C)=O too.
Reply: 0.24

Ask: Check CC(=O)O[C@H]1[C@H](OC(=O)c2ccccc2)[C@@]2(C)[C@@H](OC(=O)c3ccccc3)C[C@@H]3[C@@H](OC(C)=O)[C@]2(OC3(C)C)[C@@](C)(O)[C@H]1O [2BETA,3BETA,4BETA,TRIHYDROXYCELARBICO] too.
Reply: 0.24

====

Each entry below carries its recorded FR50.
- System: Spodoptera littoralis
- test: Antifeedant activity against Spodoptera littoralis fifth-instar larvae reared on compound exposed lettuce disks assessed as feeding ratio when 50% of control leaf disk area consumed at 10 ug/cm2 measured for 4 to 5 hr by leaf disk choice method
- Type: functional
I'd appreciate a reply containing only the number, no unit.

Below: 5 compounds and their reported FR50.
CC(=O)O[C@H]1C[C@@H](C)[C@]23OC(C)(C)[C@H](C[C@H](OC(=O)c4ccccc4)[C@]2(CO)[C@H]1OC(C)=O)[C@H]3OC(C)=O: 0.36
CC(=O)O[C@@H]1[C@@H]2[C@@H](OC(C)=O)[C@]3(OC2(C)C)[C@H](C)C[C@H](OC(C)=O)[C@H](OC(C)=O)[C@@]3(CO)[C@@H]1OC(=O)c1ccccc1: 0.16
CC(=O)OC[C@@]12[C@@H](OC(=O)/C=C/c3ccccc3)CC[C@](C)(O)[C@]13OC(C)(C)[C@H]([C@@H](OC(C)=O)[C@H]2OC(=O)c1ccccc1)[C@H]3OC(C)=O: 0.27
CC(=O)O[C@@H]1[C@@H](O)[C@@H]2[C@@H](OC(=O)c3cccnc3)[C@@]3(OC2(C)C)[C@@]1(C)[C@@H](OC(=O)c1ccccc1)CC[C@]3(C)O: 0.74
CC(=O)O[C@H]1[C@@H]2[C@@H](OC(=O)c3cccnc3)[C@@]3(OC2(C)C)[C@@](C)([C@@H](OC(=O)c2ccccc2)CC[C@]3(C)O)[C@@H]1OC(C)=O: 0.04

Here's the next entry for you.
Ask: Need FR50 of CC(=O)O[C@@H]1[C@@H]2[C@@H](OC(C)=O)[C@]3(OC2(C)C)[C@H](C)C[C@H](OC(C)=O)[C@H](OC(C)=O)[C@@]3(CO)[C@H]1OC(=O)c1ccccc1 , thanks.
Reply: 0.07

FYI, the data here is from ChEMBL document CHEMBL3045149.
